# Test system: HeLa Cells
# protocol_summary: Transfection of HeLa cells with DOTMA/SEQ ID NO: 72/peptide compared with Lipofectamine 2000
# Format: cell-based
# run_conditions: 0.3 μL of DOTMA/SEQ ID NO: 72/Peptide in well of a 96 well plate; fusogenic peptide 0.1 mg/mL
Entries annotated with measured RF (Relative Fluorescence), DOTMA/SEQ ID NO: 72/Peptide, HeLa Cells
property_name: RF (Relative Fluorescence), DOTMA/SEQ ID NO: 72/Peptide, HeLa Cells

substance: 336 (GEFYFDLRLKGDK; Peptidic transfection agent) [compound 336]
system_under_test: HeLa Cells
value: 13434
--
substance: 358 (GHRGPTGRPGKRGKQGQKGDS; Peptidic transfection agent) [compound 358]
system_under_test: HeLa Cells
value: 13686
--
substance: 342 (TAGSCLRKFSTM; Peptidic transfection agent) [compound 342]
system_under_test: HeLa Cells
value: 28841
--
substance: 355 (FRHRNRKGY; Peptidic transfection agent) [compound 355]
system_under_test: HeLa Cells
value: 22367
--
substance: 341 (LRAHAVDVNG; Peptidic transfection agent) [compound 341]
system_under_test: HeLa Cells
value: 8020
--
substance: 236 (KNNQKSEPLIGRKKT; Peptidic transfection agent) [compound 236]
system_under_test: HeLa Cells
value: 8492
--
substance: 365 (ISRCQVCMKKRH; Peptidic transfection agent) [compound 365]
system_under_test: HeLa Cells
value: 36054
--
substance: 357 (SETTVKYIFRLHE; Peptidic transfection agent) [compound 357]
system_under_test: HeLa Cells
value: 9229
--
substance: 503 (TAGSCLRKFSTMRRRRRRRRRRRR; Peptidic transfection agent) [compound 503]
system_under_test: HeLa Cells
value: 17101
--
substance: 375 (LAGSCLPVFSTL; Peptidic transfection agent) [compound 375]
system_under_test: HeLa Cells
value: 34887
--
substance: 351 (LNRQELFPFG; Peptidic transfection agent) [compound 351]
system_under_test: HeLa Cells
value: 10575
--
substance: 268 (GGFLKYTVSYDI; Peptidic transfection agent) [compound 268]
system_under_test: HeLa Cells
value: 10792
--
substance: 347 (DLGTAGSCLRKFSTM; Peptidic transfection agent) [compound 347]
system_under_test: HeLa Cells
value: 16814
--
substance: 369 (TAIPSCPEGTVPLYS; Peptidic transfection agent) [compound 369]
system_under_test: HeLa Cells
value: 14880
--
substance: 377 (TAGSCLRRFSTM; Peptidic transfection agent) [compound 377]
system_under_test: HeLa Cells
value: 32914
--
substance: 343 (LFSHAVSSNG; Peptidic transfection agent) [compound 343]
system_under_test: HeLa Cells
value: 8577
--
substance: 350 (SIGFRGDGQTC; Peptidic transfection agent) [compound 350]
system_under_test: HeLa Cells
value: 19802

###

Consider the following substances and their measured RF (Relative Fluorescence), DOTMA/SEQ ID NO: 72/Peptide, HeLa Cells readings.
# Tested on: HeLa Cells
# protocol_summary: Transfection of HeLa cells with DOTMA/SEQ ID NO: 72/peptide compared with Lipofectamine 2000
# Format: cell-based
# run_conditions: 0.4 μL of DOTMA/SEQ ID NO: 72/Peptide in well of a 96 well plate; fusogenic peptide 0.1 mg/mL
property_name: RF (Relative Fluorescence), DOTMA/SEQ ID NO: 72/Peptide, HeLa Cells

substance: 358 (GHRGPTGRPGKRGKQGQKGDS; Peptidic transfection agent) [compound 358]
value: 11097

substance: 328 (NWRHISYITRFG; Peptidic transfection agent) [compound 328]
value: 10951

substance: 360 (GDLGRPGRKGRPGPP; Peptidic transfection agent) [compound 360]
value: 8995

substance: 375 (LAGSCLPVFSTL; Peptidic transfection agent) [compound 375]
value: 29024

###

# Tested on: HeLa Cells
# protocol_summary: Transfection of HeLa cells with DOTMA/SEQ ID NO: 72/peptide compared with Lipofectamine 2000
# Type: cell-based
# run_conditions: 0.3 μL of DOTMA/SEQ ID NO: 72/Peptide in well of a 96 well plate; fusogenic peptide 0.1 mg/mL
# Procedure: Cells were plated to so that on the day of transfection the cells were 60-70% confluent in 96 well tissue culture plates. […] All solutions were at room temperature. […] Plates were read on a fluorescent plate reader. […] Other modes of analysis, for example quantification with B-galactosidase or luciferase reports plasmids can also be used. […]
property_name: RF (Relative Fluorescence), DOTMA/SEQ ID NO: 72/Peptide, HeLa Cells

substance: 360 (GDLGRPGRKGRPGPP; Peptidic transfection agent) [compound 360]
value: 10381

substance: 335 (TVFSVDQDNMLE; Peptidic transfection agent) [compound 335]
value: 11547

substance: 326 (RLVSYSGVLFFLK; Peptidic transfection agent) [compound 326]
value: 10330

substance: 452 (CNYYSNSYSFWLASLNPER; Peptidic transfection agent) [compound 452]
value: 12047

substance: 344 (KGHRGF; Peptidic transfection agent) [compound 344]
value: 12564

###

A collection of substances and their measured RF (Relative Fluorescence), DOTMA/SEQ ID NO: 72/Peptide, HeLa Cells
# System: HeLa Cells
# protocol_summary: Transfection of HeLa cells with DOTMA/SEQ ID NO: 72/peptide compared with Lipofectamine 2000
# Assay type: cell-based
# run_conditions: 0.4 μL of DOTMA/SEQ ID NO: 72/Peptide in well of a 96 well plate; fusogenic peptide 0.1 mg/mL
property_name: RF (Relative Fluorescence), DOTMA/SEQ ID NO: 72/Peptide, HeLa Cells

substance: 348 (HQQDLGTAGSCLRKFSTM; Peptidic transfection agent) [compound 348]
system_under_test: HeLa Cells
value: 15054
//
substance: 323 (HQQDLGTAGSCLRKFSTMFLF; Peptidic transfection agent) [compound 323]
system_under_test: HeLa Cells
value: 9244
//
substance: 381 (TAGSCL; Peptidic transfection agent) [compound 381]
system_under_test: HeLa Cells
value: 20088
//
substance: 367 (TDIPPCPHGWISLWK; Peptidic transfection agent) [compound 367]
system_under_test: HeLa Cells
value: 17529

###

# Test system: HeLa Cells
# protocol_summary: Transfection of HeLa cells with DOTMA/SEQ ID NO: 72/peptide compared with Lipofectamine 2000
# Type: cell-based
# run_conditions: 0.2 μL of DOTMA/SEQ ID NO: 72/Peptide in well of a 96 well plate; fusogenic peptide 0.1 mg/mL
Rule: RF (Relative Fluorescence), DOTMA/SEQ ID NO: 72/Peptide, HeLa Cells of 20000 or more gives 1; anything lower gives -1.

substance: 367 (TDIPPCPHGWISLWK; Peptidic transfection agent) [compound 367]
category: 1

substance: 335 (TVFSVDQDNMLE; Peptidic transfection agent) [compound 335]
category: -1

substance: 350 (SIGFRGDGQTC; Peptidic transfection agent) [compound 350]
category: 1

substance: 501 (DLGTAGSCLRRFSTM; Peptidic transfection agent) [compound 501]
category: 1

substance: 342 (TAGSCLRKFSTM; Peptidic transfection agent) [compound 342]
category: 1

substance: 268 (GGFLKYTVSYDI; Peptidic transfection agent) [compound 268]
category: -1

substance: 381 (TAGSCL; Peptidic transfection agent) [compound 381]
category: 1

substance: 454 (TGLSCLQRFTTM; Peptidic transfection agent) [compound 454]
category: 1

substance: 369 (TAIPSCPEGTVPLYS; Peptidic transfection agent) [compound 369]
category: -1

substance: 377 (TAGSCLRRFSTM; Peptidic transfection agent) [compound 377]
category: 1

substance: 236 (KNNQKSEPLIGRKKT; Peptidic transfection agent) [compound 236]
category: -1

substance: 347 (DLGTAGSCLRKFSTM; Peptidic transfection agent) [compound 347]
category: 1

substance: 344 (KGHRGF; Peptidic transfection agent) [compound 344]
category: -1

substance: 237 (KNSFMALYLSKG; Peptidic transfection agent) [compound 237]
category: -1

substance: 375 (LAGSCLPVFSTL; Peptidic transfection agent) [compound 375]
category: 1

substance: 355 (FRHRNRKGY; Peptidic transfection agent) [compound 355]
category: 1

substance: 351 (LNRQELFPFG; Peptidic transfection agent) [compound 351]
category: -1

substance: 353 (KKQRFRHRNRKGYRSQ; Peptidic transfection agent) [compound 353]
category: 1

substance: 365 (ISRCQVCMKKRH; Peptidic transfection agent) [compound 365]
category: 1

###

Items are presented alongside their recorded RF (Relative Fluorescence), DOTMA/SEQ ID NO: 72/Peptide, HeLa Cells.
# Test system: HeLa Cells
# protocol_summary: Transfection of HeLa cells with DOTMA/SEQ ID NO: 72/peptide compared with Lipofectamine 2000
# Assay type: cell-based
# run_conditions: 0.3 μL of DOTMA/SEQ ID NO: 72/Peptide in well of a 96 well plate; fusogenic peptide 0.1 mg/mL
property_name: RF (Relative Fluorescence), DOTMA/SEQ ID NO: 72/Peptide, HeLa Cells

substance: 237 (KNSFMALYLSKG; Peptidic transfection agent) [compound 237]
value: 8015
//
substance: 218 (SPPRRARVT; Peptidic transfection agent) [compound 218]
value: 10151
//
substance: 348 (HQQDLGTAGSCLRKFSTM; Peptidic transfection agent) [compound 348]
value: 16164
//
substance: 501 (DLGTAGSCLRRFSTM; Peptidic transfection agent) [compound 501]
value: 20410
//
substance: 219 (RKRLQVQLSIRT; Peptidic transfection agent) [compound 219]
value: 13531
//
substance: 328 (NWRHISYITRFG; Peptidic transfection agent) [compound 328]
value: 10801
//
substance: 450 (TAGSCLRKFSCL; Peptidic transfection agent) [compound 450]
value: 12553
//
substance: 323 (HQQDLGTAGSCLRKFSTMFLF; Peptidic transfection agent) [compound 323]
value: 10839
